systemTested: T1, mouse PAI-1 (mouse, UniProt P22777 24-401)
T1 sequence: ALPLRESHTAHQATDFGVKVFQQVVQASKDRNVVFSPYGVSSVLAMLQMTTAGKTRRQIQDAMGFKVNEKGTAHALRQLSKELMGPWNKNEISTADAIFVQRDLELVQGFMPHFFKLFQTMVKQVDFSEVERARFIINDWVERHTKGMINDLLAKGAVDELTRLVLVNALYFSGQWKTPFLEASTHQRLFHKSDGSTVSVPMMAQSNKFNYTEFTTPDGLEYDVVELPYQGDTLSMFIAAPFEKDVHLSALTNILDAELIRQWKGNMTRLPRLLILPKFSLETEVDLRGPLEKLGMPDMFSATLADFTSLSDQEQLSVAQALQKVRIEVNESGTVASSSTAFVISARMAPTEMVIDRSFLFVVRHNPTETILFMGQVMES
experimentSummary: cell-based or functional assay
observable: IC50 ratio mouse/human
The reply should be a number, written without any unit.

[
  {
    "binder": "Antibody 19, scFv (scFv, V domains shown) VH: QVQLQQSGAEVKKPGSSVKVSCKASGGTFSSYAISWVRQAPGQGLEWMGGIIPIFDTANYAQKFQGRVTITADESTSTAYMELSGLRSEDTAVYYCARERRQWLEGHFDYWGRGTPVTVSS VL: DIRMTQSPSFLSASIGDRVTITCRASEGIYHELAWYQQKPGKAPKLLIYRASSLASGAPSRFSGSGSGTEFTLTISSLQPDDFATYYCQQYSNYPLTFGGGTKLEIK",
    "observable": "IC50 ratio mouse/human",
    "assayValue": 0.2
  }
]

Ask: Please give the measured IC50 ratio mouse/human for this binder: Antibody 10, scFv (scFv, V domains shown) VH: QVQLQQSGAEVKKPGSSVKVSCKASGGTFSSYAISWVRQAPGQGLEWMGGIIPTFGTANYAQKFQGRVTITADESTSTAYMELSSLRSEDTAVYYCAREKRQWLEGHFDYWGRGTPVTVSS VL: DIQMTQSPSFLSASIGDRVAITCRASEGIYHSLAWYQQKPGKAPKLLIYRASSLASGAPSRFSGSGSGTDFTLTISSLQPDDFATYYCQQYSNYPLTFGGGTRLEIK
Result: 149

Ask: What value of IC50 ratio mouse/human has been recorded for this entry: Antibody 12, scFv (scFv, V domains shown) VH: QVQLQQSGAEVKKPGSSVKVSCKASGGTFSSYAISWVRQAPGQGLEWMGGIIPTFPTANYAQKFQGRVTITADESTSTAYMELSGLRSEDTAVYYCAREKRQWLEGHFDYWGRGTPVTVSS VL: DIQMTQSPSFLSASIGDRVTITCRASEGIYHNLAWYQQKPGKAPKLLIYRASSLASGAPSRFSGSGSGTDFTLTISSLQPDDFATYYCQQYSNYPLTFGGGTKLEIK
Result: 12.2

Data origin, for the record: patent US20120114652A1
